Catalogue of GI50 values
- System: A549
- assay info: NCI tumour cell line growth inhibition, 48 h
Calls of active or inactive are those of the source. No stated cut-off is given here; in the data, active = GI50 up to about 1.1 µM and inactive = higher.

Some compounds with known GI50 results, for comparison:
O=c1[nH]c2nc[nH]c2c(=O)n1C1CCCCC1 = > 100 µM (inactive)
CCCCCCc1cc2cc(C(=O)Nc3ccccc3F)c(=N)oc2cc1O = 6.97 µM (inactive)
COC1(OC)CC(CO)(CNc2nc(N)nc(Cl)c2C=O)C1 = 59 µM (inactive)
Nc1ccc(C(c2ccccc2)(c2ccccc2)c2ccccc2)cc1 = > 100 µM (inactive)
CC(=O)c1c(C)[n+]([O-])c2cc(C)c(C)cc2[n+]1[O-] = > 100 µM (inactive)
Cc1csc2c(P(=O)(OC(C)C)OC(C)C)c(-c3ccccc3)cn12 = 16.6 µM (inactive)

Exercise: Entry COC(=O)C(c1n[nH]c2ccccc12)C(C(=O)OC)c1n[nH]c2ccccc12 (stereo not drawn) : reported GI50 = ?
Key: > 100 µM (inactive)

Exercise: Entry COCOC1/C=C/CCCCC(=O)C(C)C#CC1 (stereo not drawn) : reported GI50 = ?
Key: 12.9 µM (inactive)

----------
Catalogue of GI50 values
- Test system: SNB-19
- assay info: NCI tumour cell line growth inhibition, 48 h
Active and inactive are the calls of the source. Cut-off read from the data, not from the text of the source: active = GI50 up to about 1.1 µM and inactive = higher. Peptide text beside a SMILES is read from it. * marks the point of attachment. X27 = Clc1c(Cl)c(Cl)c(O*)c(Cl)c1Cl; Boc = CC(C)(C)OC(=O)*; OBn = c1ccc(CO*)cc1; Bn = c1ccc(C*)cc1

Some molecules with known GI50 results, for comparison:
C=C(CCC=C(C)C)C1CC=C(C)CC1 (configuration not stated) = > 100 µM (inactive)
O=C(/C=C/c1ccc(O)c(O)c1)OCCc1ccc2ccccc2c1 = 12.8 µM (inactive)
C[C@@H]1CC[C@H]2[C@H](C)C(OC3O[C@@H]4O[C@@]5(C)CC[C@H]6[C@H](C)CC[C@@H]([C@@H]3C)[C@@]46O5)O[C@@H]3O[C@@]4(C)CC[C@@H]1[C@]32O4 (some centres not stated) = > 100 µM (inactive)

Exercise: Entry CC(C)CC(NC(=O)C(CCC(=O)OCc1ccccc1)NC(=O)OC(C)(C)C)C(=O)NC(COCc1ccccc1)C(=O)NC(Cc1ccccc1)C(=O)Oc1c(Cl)c(Cl)c(Cl)c(Cl)c1Cl (configuration not stated) (Boc-E(OBn)LS(Bn)F-X27; configuration not given here) : reported GI50 = ?
Key: 28.7 µM (inactive)

Exercise: Entry CCCC(O)c1cn(C(NC(=O)c2ccccc2)P(=O)(OCC)OCC)nn1 (configuration not stated) : reported GI50 = ?
Key: > 100 µM (inactive)

Exercise: Entry "C[C@]12CC[C@H]3[C@@H](CCC4=CC(=O)CC[C@@H]43)[C@@H]1CC[C@@H]2OC1(O)C(=O)c2ccccc2C1=O" : reported GI50 = ?
Key: > 100 µM (inactive)

Exercise: Entry "O=C(O)c1c(Cl)c(Cl)c(Cl)c(Cl)c1C(=O)Nc1ccc2cn[nH]c2c1" : reported GI50 = ?
Key: > 100 µM (inactive)

----------
- Test system: RXF 393
- assay info: NCI tumour cell line growth inhibition, 48 h
Calls of active or inactive are those of the source. No stated cut-off is given here; in the data, active = GI50 up to about 1.1 µM and inactive = higher.
outcome measure: GI50

Cc1[nH]c2ccccc2c1C1Cc2ccccc2N1C(=O)C#Cc1ccc([N+](=O)[O-])cc1 (stereo not given) = 6.81 µM (inactive)
O=C1/C(=C2\SCC(=O)N2c2ccccc2)SC(=S)N1c1ccccc1 = 34.4 µM (inactive)
COc1ccc(C2C(Cl)C(=O)N2NC(=O)c2ccc(NC(C)=O)cc2)cc1 (stereo not given) = > 100 µM (inactive)
CCC1C(=O)OCc2c1cc1n(c2=O)Cc2ccccc2-1 (stereo not given) = > 100 µM (inactive)

Consider the record given below.
Exercise: Entry COc1ccc(NC(/C(C(=O)c2ccccc2)=C(\O)C(=O)/C=C(\O)c2ccccc2)c2ccc(OC)cc2)cc1 (stereo not given) : reported GI50 = ?
Key: 37.1 µM (inactive)

----------
Catalogue of GI50 values
- System: OVCAR-3
- assay info: NCI tumour cell line growth inhibition, 48 h
Active and inactive are the calls of the source. Cut-off read from the data, not from the text of the source: active = GI50 up to about 1.1 µM and inactive = higher.

Some molecules with known GI50 results, for comparison:
Cc1ccsc1/C=N/Nc1cc(C)c2cccc(C)c2n1 = > 100 µM (inactive)
C(=C\Nc1ccc(-c2ccccc2)cc1)/C=N/c1ccc(-c2ccccc2)cc1 = > 100 µM (inactive)
Cc1ccc(S(=O)(=O)N/N=C2/CC[C@H](C(C)(C)C)C[C@@H]2C)cc1 = 12.6 µM (inactive)
CCCCC1Cc2cc(OC)ccc2-c2n1c1cc(OC)ccc1[n+]2C.CCCCC1Cc2cc(OC)ccc2-c2n1c1ccc(OC)cc1[n+]2C (configuration not stated) = 1.4 µM (inactive)
Cc1c(C)c2c(c(N)c1C#N)C(=O)N(CCc1ccccc1)C2=O = > 100 µM (inactive)
COc1ccc(/C=C(\NC(=O)c2ccccc2)C(=O)NN(C)c2ccnc3cc(Cl)ccc23)cc1OC = 27.6 µM (inactive)
COc1ccc(/C=N/NS(=O)(=O)c2ccccc2)cc1 = > 100 µM (inactive)
Cc1cccc2c1CC1(Cc3ccccc3C1=O)C2=O (configuration not stated) = > 100 µM (inactive)

Consider the record given below.
Exercise: Which measured GI50 belongs to "O=S1(=O)OCCOS(=O)(=O)C1S(=O)(=O)c1cccc2ccccc12" , tested on OVCAR-3?
Key: > 100 µM (inactive)

----------
- Tested on: MDA-MB-435
- assay info: NCI tumour cell line growth inhibition, 48 h
Activity calls are given as the source filed them. Cut-off read from the data, not from the text of the source: active = GI50 up to about 1.1 µM and inactive = higher.
outcome measure: GI50

Some compounds with known GI50 results, for comparison:
O=Cc1cccc2c1Oc1c(cccc1C(=O)O)S2 = > 100 µM (inactive)
O=c1cc(CBr)c2ccc(O)cc2o1 = 39 µM (inactive)
OCCSCc1ccccc1 = > 100 µM (inactive)

Exercise: Which measured GI50 belongs to COc1ccc(NC(/C(C(=O)c2ccccc2)=C(\O)C(=O)/C=C(\O)c2ccccc2)c2ccc(OC)cc2)cc1 (stereo unspecified) , tested on MDA-MB-435?
Key: 20.6 µM (inactive)

Exercise: Which measured GI50 belongs to "CSc1c(C)[n+]([O-])c2cc(Cl)c(Cl)cc2[n+]1[O-]" , tested on MDA-MB-435?
Key: 18.5 µM (inactive)

Exercise: Which measured GI50 belongs to "Cc1c(C)c2c(c(N)c1C#N)C(=O)N(CCc1ccccc1)C2=O" , tested on MDA-MB-435?
Key: > 100 µM (inactive)

Exercise: Which measured GI50 belongs to COc1ccccc1C[C@@H]1OC2(C=CC(=O)CC2SC(=O)c2ccccc2)O[C@H]1Cc1ccccc1OC (stereo partly specified) , tested on MDA-MB-435?
Key: 1.94 µM (inactive)

Exercise: Which measured GI50 belongs to "COc1ccccc1NCc1cccc2c(=O)c3ccc(Cl)cc3oc12" , tested on MDA-MB-435?
Key: 65 µM (inactive)

Exercise: Which measured GI50 belongs to CC1(c2cccc(C3CCC4(C=CC3=O)OCCO4)c2)OCCO1 (stereo unspecified) , tested on MDA-MB-435?
Key: 13.4 µM (inactive)

Exercise: Which measured GI50 belongs to "CC(C)OC(=O)Nc1cccc(Cl)c1" , tested on MDA-MB-435?
Key: > 100 µM (inactive)

Exercise: Which measured GI50 belongs to "O=C1/C(=C2\SCC(=O)N2c2ccccc2)SC(=S)N1c1ccccc1" , tested on MDA-MB-435?
Key: 32.1 µM (inactive)

----------
- System: MDA-MB-435
- assay info: NCI tumour cell line growth inhibition, 48 h
Calls of active or inactive are those of the source. Rule as the data show it: active = GI50 up to about 1.1 µM and inactive = higher.
outcome measure: GI50

CCCCCCCCCCCCCCCCNc1ccn(C2CC(O)C(COC(c3ccccc3)(c3ccccc3)c3ccc(OC)cc3)O2)c(=O)n1 (stereo not given) = > 100 µM (inactive)
C=CCC1(C#N)C(=S)NC2=C(C(=O)CC(C)(C)C2)C1c1ccccc1 (stereo not given) = 33 µM (inactive)
COC(=O)c1cc(Br)c(C(=O)C(Cl)(Cl)Cl)[nH]1 = > 100 µM (inactive)
CC(=O)Oc1ccc2c(c1)c1c(=O)oc(N(C)C)nc1n2Cc1ccccc1 = 46.2 µM (inactive)

Consider the record given below.
Exercise: Entry "CCOC(=O)[C@H](Cc1ccc(O)cc1)/N=C1/[C@H]2CCC[C@]1(O)[C@@](C)([N+](=O)[O-])C2" : reported GI50 = ?
Key: > 100 µM (inactive)

----------
- Tested on: MDA-MB-435
- assay info: NCI tumour cell line growth inhibition, 48 h
Active and inactive are the calls of the source. No stated cut-off is given here; in the data, active = GI50 up to about 1.1 µM and inactive = higher.
Write down the outcome that applies. Available outcomes: active, inactive

The following molecules have reported results that may help.
Cc1ccsc1/C=N/Nc1cnccn1 = inactive
C[C@]12CC[C@H](O)CC1=CC[C@@H]1[C@@H]2CC[C@]2(C)c3nc(Cl)ccc3C[C@@H]12 = inactive
O=C(/C=C/c1ccc(O)c(O)c1)OCCc1ccc2ccccc2c1 = inactive
CCCCCCc1cc2cc(C(=O)Nc3ccccc3F)c(=N)oc2cc1O = inactive
C=CC(Cl)(CBr)CCC(Br)C(C)(C)Cl (configuration not stated) = inactive
Cc1cn([C@H]2C[C@@H](N3C(=O)c4ccccc4C3=O)[C@@H](CO[Si](C)(C)C(C)(C)C)O2)c(=O)[nH]c1=O = inactive
C=C(Cl)/C(=C/Cl)CCC(Br)C(C)(C)Cl.C=C(Cl)/C(=C\Cl)CCC(Br)C(C)(C)Cl (configuration not stated) = inactive
OCCCCCNc1cc(O)nc(O)n1 = inactive

Exercise: Please indicate how the test categorized CC(O)(CCCCCl)c1nc2ccccc2s1 (configuration not stated) .
Key: inactive

Exercise: Please indicate how the test categorized "O=C(c1cccs1)N1CCc2ccccc2C1" .
Key: inactive

Exercise: Please indicate how the test categorized OC(c1cccs1)c1cc2ccccc2s1 (configuration not stated) .
Key: inactive

Exercise: Please indicate how the test categorized "CCOC(=O)Nn1c(C)nnc1-c1ccccc1" .
Key: inactive

Exercise: Please indicate how the test categorized CCCCCCCCC#CCCCCCCC(F)C(=O)O (configuration not stated) .
Key: inactive

Exercise: Please indicate how the test categorized "Cc1nc2cccc(F)c2c(=O)n1-c1nnc(C(F)(F)F)s1" .
Key: inactive

Exercise: Please indicate how the test categorized O=C(OCC(OC(=O)c1ccccc1)C1CC(C2(O)CCCCC2)C(=O)O1)c1ccccc1 (configuration not stated) .
Key: inactive

The reported numbers originate from ChEMBL document CHEMBL1201862.
